Where do these numbers come from? They come from patent US10286000B2.

# Tested on: NKG2DL (MICA-B, ULBP1-3) surface expression
# Test Method Notes: flow cytometry of NKG2DL cell surface expression in cancer cell lines
# Type: cell-based, human
# Condition Description: HCT116, SPIR 56 μM 3 days; HX531 10 μM, caffeine 1.5 mM, wortmannin 10 μM, KU55933 10 μM, VE-821 10 μM
Attribute Measured: effect of co-treatment on SPIR's upregulation of NKG2DLs

[
  {
    "Structure Smiles": "O=c1cc(-c2cccc3c2Sc2ccccc2S3)oc(N2CCOCC2)c1",
    "Result": "completely abolished"
  },
  {
    "Structure Smiles": "Cn1c(=O)c2c(ncn2C)n(C)c1=O",
    "Result": "completely abolished"
  }
]
